assay: method code G, from Hansch, C., Leo, A., & Hoekman, D. (1995). Exploring QSAR: hydrophobic, electronic, and steric constants (Vol. 2). Washington, DC: American Chemical Society.
Provide the recorded logP for the entries that follow.
Give bare numbers.

# annotated cases, reported logP shown
Compound	logP
CCC(=O)C(Cc1ccc(Cl)cc1)S(=O)(=O)c1ccccc1 (configuration not stated)	2.69
CCC(=O)C(Cc1ccccc1)S(=O)(=O)c1ccccc1 (configuration not stated)	1.82
CCC(=O)C(Cc1ccc(Cl)cc1)S(=O)(=O)c1ccc(C)cc1 (configuration not stated)	3.43
CCC(=O)C(Cc1ccc(C)cc1)S(=O)(=O)c1ccc(C)cc1 (configuration not stated)	3.3
CCC(=O)C(Cc1ccc(C)cc1)S(=O)(=O)c1ccccc1 (configuration not stated)	2.7

Please give logP, item by item, for the list that follows.
1. CCC(=O)C(Cc1ccc(OC)cc1)S(=O)(=O)c1ccc(C)cc1 (configuration not stated)
2. CCC(=O)C(Cc1ccccc1)S(=O)(=O)c1ccc(C)cc1 (configuration not stated)

1: 2.47; 2: 2.45

====

Flag rule - logP less than 1 flags Y; the remaining entries get N.

These solved cases illustrate the format of a correct answer.
Molecule	Label class
CCCn1cnc2c(NC(C)=O)ncnc21	Y
COC(=O)CCCC(=O)OC	Y
C[C@H](NC(=O)N(CCCl)N=O)C(=O)O	Y

Quick check: logP of CN(C)c1ccc(C#N)cc1 under 1?
N

Quick check: logP of O=C1CC(OC(=O)c2ccccc2)N1 (stereo not given) under 1?
N

====

Provide the recorded logP for the entries that follow.
Give bare numbers.

# annotated cases, reported logP shown
Molecule	logP
N#Cc1ccc(C#N)cc1	0.93
CCOc1cccc(Cl)n1	2.55
COP(=O)(OC)OC(C)=CC(=O)N(C)C	0
Nc1ccc([C@@H](O)[C@@H](CO)NC(=O)C(Cl)Cl)cc1	-0.29
N#CC(CCc1ccc(Cl)cc1)(Cn1cncn1)c1ccccc1 (centres undefined)	3.23

Please give logP, item by item, for the list that follows.
1. Cc1ccc2[nH]c(N)nc2c1
2. Clc1cc(Cl)c2cc(Cl)cc(Cl)c2c1
3. CCc1cccnc1
4. NC(=O)CCNC(=O)C(F)(F)Cn1cncc1[N+](=O)[O-]
5. CNC(=O)c1ccoc1
6. O=[N+]([O-])c1ccc(Nc2ccccc2)cc1

[1.11, 6.19, 1.66, -0.95, 0.34, 3.74]

Please give logP, item by item, for the list that follows.
1. NC(=O)C(Cl)Cl
2. CC1(O)CCCCC1
3. Clc1c(Cl)c(Cl)c2ccccc2c1Cl
4. c1ccc(OP2OCCO2)cc1
5. O/N=C/c1ccccc1
6. Nc1nc2cc(Cl)ccc2[nH]1
7. Cc1cscn1
8. C1COC1

0.19
1.33
5.75
1.42
1.85
1.88
0.97
-0.14

Please give logP, item by item, for the list that follows.
1. CC(C(=O)O)c1ccc(N2C(=O)C3C4C=CCC3(C4)C2=O)cc1 (centres undefined)
2. O=C1C=C(Br)C(=O)c2ccccc21
3. BrCCCBr
4. O=C(NCCO)C(F)(F)Cn1cnc([N+](=O)[O-])n1
5. CCNC(=O)c1ccoc1
6. CC(C)(C)NC(=O)[C@H]1CC[C@H]2[C@@H]3CC[C@H]4NC(=O)C=C[C@]4(C)[C@H]3CC[C@]12C
7. O=C1C(Cl)C(CCl)CN1c1cccc(C(F)(F)F)c1 (centres undefined)

1: 2.31; 2: 2.44; 3: 2.37; 4: -0.77; 5: 0.72; 6: 3.03; 7: 3.36

Please give logP, item by item, for the list that follows.
1. CCN(CC)C(=O)COC(=O)[C@@H](C)c1ccc2cc(OC)ccc2c1
2. CN(C)N=Nc1ccc(CCCC(=O)O)cc1
3. CC1NC(=O)C(CC(=O)N[C@@H](Cc2c[nH]c3ccccc23)C(=O)N[C@@H](Cc2ccccc2)C(=O)N(C)Cc2ccccc2)NC1=O (some centres undefined)
4. O/N=C/c1ccc(Cl)cc1
5. Cc1nc(N(C)C)nc(OC(=O)N(C)C)c1C
6. CC(=O)OC[C@H]1O[C@@H](n2ncc(=O)[nH]c2=O)[C@H](OC(C)=O)[C@@H]1OC(C)=O
7. CS(=O)(=O)N(c1ccccc1[N+](=O)[O-])S(C)(=O)=O
8. CN(C)C(=O)SCCCCOc1ccccc1

1: 3.32; 2: 2.62; 3: 3.18; 4: 2.67; 5: 1.7; 6: -0.2; 7: 0.81; 8: 3.28

Please give logP, item by item, for the list that follows.
1. Cc1cc(=O)cc(C)o1
2. CN(C(=O)COc1nc2ccccc2s1)c1ccccc1

0.1
3.23

Please give logP, item by item, for the list that follows.
1. Cc1ccnc(=O)[nH]1
2. O=C(O)COc1ccc(N2Cc3ccccc3C2=O)cc1
3. Cc1ccc2c(c1)nc(N)n2C
4. Clc1cc(Cl)c2c(Cl)ccc(Cl)c2c1

1. -1.45
2. 3.58
3. 1.47
4. 5.76

Please give logP, item by item, for the list that follows.
1. CC(C)(C)NCC(O)COCCCc1ccccc1 (centres undefined)
2. Nc1ccc2c(c1)C(=O)N(O)C2=O
3. COCC(C)OC (centres undefined)
4. O=Nc1ccc(NO)cc1

[2.58, 0.16, -0.09, 1.49]

Please give logP, item by item, for the list that follows.
1. CC(=O)Nc1ncc([N+](=O)[O-])s1
2. COc1cccc(N(C)C(=S)Oc2cccc(C(C)(C)C)c2)n1
3. Nc1ccn(C2CC(CO)C(O)C2O)c(=O)n1 (centres undefined)
4. COC(=O)C1=CCCN(C)C1
5. N#CNc1ccccc1
6. CC(=O)Nc1ncnc2c1ncn2C
7. CON=C(Cc1cccnc1)c1ccc(Cl)cc1Cl

1. 1.3
2. 5.18
3. -2.41
4. 0.35
5. 1.87
6. -0.41
7. 2.51
